Kindly state EC50 for each of the entries shown.
experimental.target: T1, human CNTN4-rabbit Fc (human; rabbit, UniProt Q8IWV2 19-1000, limits assumed)
T1 construct: not shown: rabbit Fc
T1 sequence (looked up): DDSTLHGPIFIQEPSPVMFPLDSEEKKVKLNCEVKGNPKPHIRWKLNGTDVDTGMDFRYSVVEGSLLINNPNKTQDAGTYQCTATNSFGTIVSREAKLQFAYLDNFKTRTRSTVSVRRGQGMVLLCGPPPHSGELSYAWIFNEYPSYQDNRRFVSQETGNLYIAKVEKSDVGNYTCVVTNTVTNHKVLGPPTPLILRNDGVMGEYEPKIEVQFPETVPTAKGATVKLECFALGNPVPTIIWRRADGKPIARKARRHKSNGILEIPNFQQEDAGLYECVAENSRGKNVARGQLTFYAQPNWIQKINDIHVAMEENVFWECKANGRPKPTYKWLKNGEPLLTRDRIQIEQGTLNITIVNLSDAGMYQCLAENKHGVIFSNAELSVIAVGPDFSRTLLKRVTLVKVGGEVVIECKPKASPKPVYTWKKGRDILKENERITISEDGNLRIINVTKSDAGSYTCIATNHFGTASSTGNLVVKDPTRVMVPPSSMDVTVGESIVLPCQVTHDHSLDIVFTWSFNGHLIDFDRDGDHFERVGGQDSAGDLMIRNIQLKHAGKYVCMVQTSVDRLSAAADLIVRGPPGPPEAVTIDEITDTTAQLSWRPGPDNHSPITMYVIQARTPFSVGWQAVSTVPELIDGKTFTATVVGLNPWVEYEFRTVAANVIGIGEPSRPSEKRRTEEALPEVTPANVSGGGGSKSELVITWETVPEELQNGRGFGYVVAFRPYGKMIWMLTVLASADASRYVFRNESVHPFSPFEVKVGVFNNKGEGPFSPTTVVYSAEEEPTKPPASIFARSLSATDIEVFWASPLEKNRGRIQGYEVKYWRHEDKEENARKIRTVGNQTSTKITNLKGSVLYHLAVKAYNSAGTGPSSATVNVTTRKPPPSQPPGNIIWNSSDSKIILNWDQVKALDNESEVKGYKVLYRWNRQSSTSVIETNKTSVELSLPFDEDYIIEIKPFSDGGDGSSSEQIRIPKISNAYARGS
method.notes: ELISA, plate coated with antigen-rabbit Fc, anti-human IgG Fc-HRP
Numeric answer only, unit nM assumed.

EC50 for anti-CNTN4 IgG A13SF16 (antibody, V domains shown, human IgG4 (S228P)) VH: AVTLDESGGGLQTPGGGLSLVCKASGFTFSSYGMAWVRQAPGKGLEWVAGITSSGSSAGYGPAVKGRATISRDNGQSTVRLQLNNLRAEDTATYYCAKDGYIYSGADSDSIDAWGHGTEVIVSS VL: ALTQPSSVSANLGGTVKITCSGSGGSYGWFQQKSPGSAPVTLIYNNDNRPSDIPSRFSGSKSGSTATLTITGVQAEDEAVYFCGGYDSSTYVDTFGAGTTLTVL ?
0.01

Would you mind doing anti-CNTN4 IgG A13SF19 (antibody, V domains shown, human IgG4 (S228P)) VH: AVTLDESGGGLHTPGGALSLVCKASGFTFSSYGMAWVRQASGKGLEWVAGITSSGSSAGYGPAVKGRATISRDNGQSTVRLQLNNLRAEDTATYYCAKDGYIYSGADSDSIDAWGHGTEVIVSS VL: ALTQPSSVSANLGGTVEITCSGSSSGNYGWYQQKSPGSAPVTVIYYNDERPSDIPSRFSGSKSGSTGTLTITGVQAEDEAVYYCGGYEGSTYVGIFGAGTTLTVL as well?
0.01
